Values were extracted from paper PMC5630632.

Assay: High-throughput kinetic solubility (µSOL), pH 7.4
Assay type: physicochemical
Settings: aqueous solution pH 7.4, pH 7.4, aqueous buffer, kinetic from dmso stock; read-out: HT Kinetic Solubility, Solubility
Threshold rule: solubility kinetic at 6 h greater than or equal to 100 µM is Condition met; below that, Condition not met.

N#Cc1ccnc(N2C(=O)CC[C@H]2C(=O)N(c2cncc(F)c2)[C@H](C(=O)NC2CC(F)(F)C2)c2ccccc2Cl)c1 :: Condition met

Given Cc1ccccc1C(C(=O)NC1CCCCC1)N(C(=O)Cn1cnc2ccccc21)c1cccc(F)c1 (centres unmarked) , state whether its solubility kinetic at 6 h is at least 100 µM. Condition not met

Try this compound too: O=C(Nc1cccc(C(F)(F)F)c1)Nc1cc(S(=O)(=O)NC2CC2)ccc1-c1ccsc1 Condition not met

Try this compound too: CC(=O)N1CCN(Cc2ccc([C@H](C)Nc3nccc(N4C(=O)OC[C@@H]4C(C)C)n3)cc2)CC1 Condition met

Cool, now Cc1ccccc1[C@@H](C(=O)NC1CCCC1)N(C(=O)Cn1cnc2ccccc21)c1cccc(F)c1 Condition not met
